Values compiled from the nanobody polyreactivity screen of Harvey et al. (2022).

# Test Summary: yeast display, Sf9 membrane polyspecificity reagent, FACS + sequencing; frameworks hold sequencing errors
Parameter Measured: polyreactivity (PSR sort gate)

Use these answered entries as a reference point.
Query Sequence | polyreactivity (PSR sort gate)
QVQLVESGGGLFQAGGSLRLSCASSGSIFLIYAMGWYRQAPGKERELVAAITQRGGSTYYADSVKGRFTISRDNAKISVYLQMESLKPEDTAVYYCNARRYVMRYNRFYYWGQGTQVTVSS | high polyreactivity
QVQLVESGGGLVQAGGSLRLSCAASGSTFGYAMGWNRQAPGKERELVAAINWSGSRTYYADSVKGRFTISRDNAKNTVYLQMNSLKPEDTAVYYCAVLYAGDSPDFDYWGQGSQVTVSS | high polyreactivity
QVQLVESGGGIVQAGGSLRLSCAASGRIYRYNAMGWYRQAPGKERELVASINQRGGSTYYADSVKGRFTISRDNAKNTVYLQMNSLKPEDTAVYYCAQSFNSGYYYWGQGTQVTVSS | high polyreactivity
QVQLVESGGGLVQAGGSLRLSCAASGFILGVYAMGWYRQAPGKERELVAAISKSGDSTYYADSVKGRFTISRDNAKNTVYLLMNSLKPEDTAVYYCNADWSWYNYYDFDYWGQGTQVTVSS | low polyreactivity
QVQLVESGGRLVQAGGSLRLSCAASGSIFYFNAMGWYRQAPGKERELVATISRRGGSTYYADSVKGRFTISRDNAKKTVYLQMNSLKPEDTAVYYCAADYYTLYPVYIKRYGYWGQGTQVTVSS | high polyreactivity

Could I get polyreactivity (PSR sort gate) for every one of these entries?
1. QVQLVESGGALVQAGGSLRLSCAASGSTYDSYSMGWYRKAPGKERELVAAITRRGTRTYYADSVKGRFTISRDNAKNTVYLQMNSLKREDTAVYYCAADRGYRLQSYGYWGQGTQVTVSS
2. QVQLVESGGGLVQAGGSLRLSCAASGFTFDYYAMGWYRQAPGKERELVAAISRAGSTNYADSVKGRFTISRDNAKNTVYLQMNSLKPEDTAVYYCNKGYHSWSRLSQFGWSYDYWGQGTQVTVSS

high polyreactivity
high polyreactivity

Could I get polyreactivity (PSR sort gate) for every one of these entries?
1. QVQLVESGGGLVQAGGSLRLSCAASGLTFGYYAMGWYRQAPGKVRELVAAISRGSSTYYADSVKGRFTISRDNAKNTVYLQMNSLIPEDTAVYYCNALFSYGYWRVRYIVTQYDYWGQGTQVTVSS
2. QVQLVESGGGLVQAGGSLRLSCASSGRTFGTNTMGWYRQAPGKERELVAAISRSGVRTYYADSVKGRFTISRDNAKNTVYLQMKSLKAEDTAVYYCATDYKVHGFDYWGQGTQVSVSS
3. QVQLVESGGGLVQAGGSLRLSCAASGITFYYYAMRWYRQAPGKERELVAAISRGGSTYYADSVKGRFTISCDNAKNTVYLQMNSLKPEDTAVYYCNAYTTGYLFGYWGQGTQVTVSS
4. QVQLVESGGGLVQAGGSLRLSCAASASIFASNAMGLYRQAPGKERELVAAINSADSTNYADSVKGRFRISRDNAKNTVYLQMNRLKPEDPAVFYCARGLEERYDYWGLGTQVTVSS

high polyreactivity
high polyreactivity
high polyreactivity
low polyreactivity

###

# Test Summary: yeast display, Sf9 membrane polyspecificity reagent, FACS + sequencing; frameworks hold sequencing errors
Parameter Measured: polyreactivity (PSR sort gate)

Use these answered entries as a reference point.
Query Sequence | polyreactivity (PSR sort gate)
QVQLVESGGGLVQAGGSLRLSCAASGLNFARNAMGWYRQAPGKERELVAAISSSGNTYADSVKGRFTISRDNAKNTVYLQMNSLKPEDTAVYYCAADYVRWGQRKRSRYYYWGQGTQVTVSS | high polyreactivity
QVQIVESGGGLVQAGGSLRLSCAASGSTFLKYTMGWYRQAPGKERELVAAISKSGGSTYYADSVKGRFTISRDNAKNTVYLQMNSLKPEDTAVYYCAIGRSWVSSYGYGYWGQGTQVTVSS | high polyreactivity
QVQLVESGGGLVQAGGSLRLSCAESGLILAGYTMGWYRQAPGKESELVAAISDRGGSTYYADSVKGRFTISRDNAKNTVYLQMNSLKPEDTAVYYCNAFVYSYALTPSYAGDYWGQGTQVTVSS | low polyreactivity
QVQLVESGGGLVQAGGSLRLSCAASGRTYHAYAMGWYRQAPGKGRELVAAITRTGTTHYADSVKGRFTISRDNAKNTVYLQMNSLKPEETAVYYCNKATQFYQWGASPYYPRRDYWGQGTQVTVSS | low polyreactivity

Now, please, on to the next sequence.
Reported polyreactivity (PSR sort gate) ( QVQLVESGGGLVQAGGSLRLSCAASGRIFSRNAMGSYRQAPGKERELVAAITSGGSTYYADYVKGRFTISSDNAKNTVYLQLNSLKPEDTAVYTVKILRYDYWGQGTQVTVSS ) = high polyreactivity

###

# Test Summary: yeast display, Sf9 membrane polyspecificity reagent, FACS + sequencing; frameworks hold sequencing errors
Parameter Measured: polyreactivity (PSR sort gate)

Use these answered entries as a reference point.
Query Sequence | Parameter Measured | Result
QVQLVESGGGLVQAGGSLRLSCAASGITFYFYAMGWYRQAPGKERELVAAITRGGRTNYADSVKGRFTISRDNAKNTVYLQMNSLKPEDTAVYYCNKRLYSYYPGKYVAEYDYWGQGTQVTVSS | polyreactivity (PSR sort gate) | high polyreactivity
QFQLVETGGGLVQAGGSLRLSCAASGRTFRFNAMGWYRQAPRKEREFVAAITSGGGTYYADSVKGRFTISRDNAKNPVYLQMNCLKPEDTAVYYCAAPRQYYLMVYWGQGTQVTVSS | polyreactivity (PSR sort gate) | low polyreactivity
QVQLVESGGGLVQAGGSLRLSCAASRYIFDPNAMGWYRQAPGKERELVAAISGSGTSTYYADSVKGRFTISRDNAKNTVYLQMNSLKPEDTAVYYCAAAHDAGPVRYYYWGQGTQVSVSS | polyreactivity (PSR sort gate) | low polyreactivity
QVQLVESGGGLVQAGGSLRLSCAASGSIFPVYAMGWYRQAPGKERELVAAISSRGGTTYYADSVKGRFTISRDNAKNTVYLQMNSLKPEDTAVYYCAATRSGKYYGTRRKYGYWGQGTQVTVSS | polyreactivity (PSR sort gate) | high polyreactivity

Could I get polyreactivity (PSR sort gate) for every one of these entries?
1. QVQLEESGGGLVQAGGSLRLSCAASGYTFATYAMGWSRQAPGKERELVAAISQGGDRTNYADSVKGRFTISRDNAKITVYLQMNSLKPEDTSVYYCAVRYASRQSRFYYWGQGTQVTVSS
2. QVQLVESGGGLVQAGGSLRLSCAASGRTFYSYVMGWYRQAPGKERELVAAISGRGVSTYYADSVKGRFTISRDNAKNTVYLQMNSLKPEDTAVYYCAAETVHGSADFDYWGQGTQVTVSS

1: high polyreactivity; 2: low polyreactivity

Could I get polyreactivity (PSR sort gate) for every one of these entries?
1. QVQLVESAGGLVQAGRSLRLSCAASGYTFAKYTKGWYREATGKERELVAAISRGGSTTYADSVKGRFTISRDNAKNTVYLQMHSLKPEDTAVYYCAADVHRVVLEYDYWGQGTQVTVSS
2. QVQIVESGGGLVQAGGRLRLSCAASGFTLYRYAMGWYRQAPGKEREFVAAITRTGGTTYYADSVKGRFTISRDNAKNTVYLQMNSLKPEDTAVYYCAAGANAWYSYRYDYWGQGTQVTVSS
3. QVQLVESGGGLVQAGGSLRLSCAASGSTILVNAMGWYRQAPGKERELVAAISRGGSTYYADSVKGRFTISRDNAKNTVYLQMTSLKPEDTAVSYCAARGVYVKYYYWGQGTQVTVSS
4. QVQLVESGGGLVQAGGSLRLSCAASGSIFTPYAMGWYRQAPGKERELVATISARGGSTYYADSVKGRFTISRDNAKNTVYLQMNSLKPEDTAVYYCNVDYAQRVFLYDYWGQGTQVTVSS

1. low polyreactivity
2. high polyreactivity
3. high polyreactivity
4. low polyreactivity

Reported polyreactivity (PSR sort gate) ( QVQRVESWGGLVQAGGSLRLSCAASGSTFEYNAMGWNRQAPGKEREFVAAISRTGSRTYYADSVKGRFTISRDNAKNTVYLQMNSLKPEDTAVYYCARVKSRLQVGYYYWGQGTQVTVSS ) = high polyreactivity

###

# Test Summary: yeast display, Sf9 membrane polyspecificity reagent, FACS + sequencing; frameworks hold sequencing errors
Parameter Measured: polyreactivity (PSR sort gate)

Query Sequence | polyreactivity (PSR sort gate)
QVQLVESGVGLVQAGGSLRLICAASGMTFDNYAMGWYRQAPGKERELVAAITSGDGTYYADSVKGRFTISRDNAKNTVYLQMNSLKPEDTAVFYCAVQGSRTENYDWYYYWGQGTQVTVSS | low polyreactivity
QVQLVESGGGLFQAGGSLRLSCAASGLTLYFYVMGWYRQAPGKERELVAAISSTGSTYYADSVKGRFTISRDNAKNTVYLQMNSLKPEDTAVYYCAARYGGHYGAEYYWGQGSQVTVSS | high polyreactivity
QVQLEESGGGIVQAGGSLRLSCAASGSTFVLYAMGWYRPAPGKERELVAAITSGGSTYYADSVKGRFTISRDNAKNTVYLQMNSLKPEDTAVYYCAASYWDTEPGYREYDYWGQGTQVTVSS | low polyreactivity
QVQLVESGGGLVQAGGSLRLSCAASAITVKRDVMGWYRQAPGKERELVAAISRTGGSTYYADSVKGRFTISRDNAKNTVYLQMNSLKPEDTAVYYCAAATCPGIYDYWGQGTQVTVSS | high polyreactivity
QVQLVESGGGLVQAGGSRRLSCAASGRTFYYAMGWYRQAPGKETQLVATITSGGGSTYYADSVKGRFSISRDNAKNTVYLQMNSLKPEDTAVYYCAADYKSSPPLPEYDYWGQGTQVTVSS | high polyreactivity

Could I get polyreactivity (PSR sort gate) for every one of these entries?
1. QVQLVESGGGLVQAGGSLRLSCAASGRTFGVYAMGWYRQAPGKERELVAAITWSGGSTYYADSVKGRFTISRDNAKNTVYLQMNSLKPEDTAVYYCAADNWYKKQKRPSAYDYWGQGTQVTVSS
2. QVQLVESGGGLVQAGGSLRLSCAASGKIFYEYTMGWYRQAPGKERELVAAISWSGVSTYYADSVKGRFTISRDNAKNTVYLQMNSLKPEDTAVYYCAADRGNDYWGQGTQVTVSS
3. QVQLVESGGGLVQAGGSLRLSCAASGRTLFGYAMGWYRQAPGKERELVAAITYGATSTYAHSVKGRFTISRDNAKNTVYLQMNSLKPEDTAVYYCNAYTPTDGFDYWGQGTQVTVSS
4. QVQLVESGGGLVQAGGSLRLRCAASGNTFGYYTMGWYRQAPAKESELVASIDSGGGTNYADSVKGRFTISRDNAKNTVYLQMNRLKPEDTAVYSCAAASPLYWVDDFESGWRYYYWGQGTQVTVSS
5. QVQLVESGGGLVQAGGSLRLSCAASGRTFSLNTMGWYRQAPGTERELVATISYSGDRTYYADSVKGRFTISRDNAKNTVYLQMNSLKPEETAVYYCAAQYWGRSYAGRYDYWGQGTQVTVSS
6. QVQLVESGGALVQAGGSLRLSCAASGRIFGYYAMGWYRQAPGKERELVAAITVSGTSTYYADSVKGRFTISRDNAKNTVYLQMNSLKPEDTAVYYCAARPRRRYYGYDSWGQGTQVTVSS

["high polyreactivity", "low polyreactivity", "low polyreactivity", "low polyreactivity", "high polyreactivity", "high polyreactivity"]
